test: Apparent permeability across basolateral to apical side in human Caco2 cells at 10 uM after 60 mins by LC-MS/MS analysis; settings: Caco-2
List of Papp B→A at 1 h, 10 µM values.
Respond with the bare value in ×10⁻⁶ cm/s.

Observe how each entry below is paired with its result.
* c1ccc(C2CCCN2c2ccnc3[nH]ncc23)cc1 (stereo unspecified) | 63
* c1ccc(C2CCCN2c2ccnc3[nH]ccc23)cc1 (stereo unspecified) | 46
* CCNC(=O)c1cc2c(N3CCCC3c3ccccc3)ccnc2[nH]1 (stereo unspecified) | 63
* c1ccc(C2COCCN2c2ccnc3[nH]ncc23)cc1 (stereo unspecified) | 73

Query: Which measured Papp B→A at 1 h, 10 µM value corresponds to CCNC(=O)c1cc2c(N3CCCC3c3cccnc3)ccnc2[nH]1 (stereo unspecified) ?
Response: 31

Query: Which measured Papp B→A at 1 h, 10 µM value corresponds to O=C(NC1CC1)c1cc2c(-c3cccc(Cl)c3)ccnc2[nH]1 ?
Response: 18
